# Test Target: human serotonin transporter (hSERT) (Homo sapiens, UniProt P31645)
# Construct: cells were stimulated with staurosporine (40 nM) to increase the expression of the 5-HT transporter
# Sequence (P31645 whole entry): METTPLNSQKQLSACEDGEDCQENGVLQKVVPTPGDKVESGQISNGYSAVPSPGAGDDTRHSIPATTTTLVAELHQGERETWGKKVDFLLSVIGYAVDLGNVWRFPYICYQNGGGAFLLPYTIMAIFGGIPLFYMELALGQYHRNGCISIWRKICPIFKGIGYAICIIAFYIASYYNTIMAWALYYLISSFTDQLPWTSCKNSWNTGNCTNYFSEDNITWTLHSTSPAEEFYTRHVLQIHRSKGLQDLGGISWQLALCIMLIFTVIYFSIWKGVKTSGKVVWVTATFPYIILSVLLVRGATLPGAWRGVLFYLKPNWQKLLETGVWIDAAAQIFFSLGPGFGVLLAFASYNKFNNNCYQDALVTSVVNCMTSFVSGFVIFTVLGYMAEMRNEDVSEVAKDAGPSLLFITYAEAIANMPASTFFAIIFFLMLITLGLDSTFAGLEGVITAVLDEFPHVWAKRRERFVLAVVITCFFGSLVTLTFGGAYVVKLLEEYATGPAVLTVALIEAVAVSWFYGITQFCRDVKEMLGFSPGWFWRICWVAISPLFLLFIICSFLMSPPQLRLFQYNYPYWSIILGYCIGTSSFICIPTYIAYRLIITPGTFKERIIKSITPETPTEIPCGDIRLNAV
# Measurement Description: Serotonin (5-HT) uptake assay (hSERT function uptake) in JAR cells
# Condition Context: [3H]5-HT uptake
Reported Metric: EC50 (µM)

• Cc1ccc(C23CNCC2C3)cc1 (single isomer, unassigned; (+)) = 7.35
